Please provide measured EC50 for the entries that follow.
- target-or-test-system: Sodium channel protein type 4 subunit alpha (Homo sapiens)
- Sequence (P35499 whole entry): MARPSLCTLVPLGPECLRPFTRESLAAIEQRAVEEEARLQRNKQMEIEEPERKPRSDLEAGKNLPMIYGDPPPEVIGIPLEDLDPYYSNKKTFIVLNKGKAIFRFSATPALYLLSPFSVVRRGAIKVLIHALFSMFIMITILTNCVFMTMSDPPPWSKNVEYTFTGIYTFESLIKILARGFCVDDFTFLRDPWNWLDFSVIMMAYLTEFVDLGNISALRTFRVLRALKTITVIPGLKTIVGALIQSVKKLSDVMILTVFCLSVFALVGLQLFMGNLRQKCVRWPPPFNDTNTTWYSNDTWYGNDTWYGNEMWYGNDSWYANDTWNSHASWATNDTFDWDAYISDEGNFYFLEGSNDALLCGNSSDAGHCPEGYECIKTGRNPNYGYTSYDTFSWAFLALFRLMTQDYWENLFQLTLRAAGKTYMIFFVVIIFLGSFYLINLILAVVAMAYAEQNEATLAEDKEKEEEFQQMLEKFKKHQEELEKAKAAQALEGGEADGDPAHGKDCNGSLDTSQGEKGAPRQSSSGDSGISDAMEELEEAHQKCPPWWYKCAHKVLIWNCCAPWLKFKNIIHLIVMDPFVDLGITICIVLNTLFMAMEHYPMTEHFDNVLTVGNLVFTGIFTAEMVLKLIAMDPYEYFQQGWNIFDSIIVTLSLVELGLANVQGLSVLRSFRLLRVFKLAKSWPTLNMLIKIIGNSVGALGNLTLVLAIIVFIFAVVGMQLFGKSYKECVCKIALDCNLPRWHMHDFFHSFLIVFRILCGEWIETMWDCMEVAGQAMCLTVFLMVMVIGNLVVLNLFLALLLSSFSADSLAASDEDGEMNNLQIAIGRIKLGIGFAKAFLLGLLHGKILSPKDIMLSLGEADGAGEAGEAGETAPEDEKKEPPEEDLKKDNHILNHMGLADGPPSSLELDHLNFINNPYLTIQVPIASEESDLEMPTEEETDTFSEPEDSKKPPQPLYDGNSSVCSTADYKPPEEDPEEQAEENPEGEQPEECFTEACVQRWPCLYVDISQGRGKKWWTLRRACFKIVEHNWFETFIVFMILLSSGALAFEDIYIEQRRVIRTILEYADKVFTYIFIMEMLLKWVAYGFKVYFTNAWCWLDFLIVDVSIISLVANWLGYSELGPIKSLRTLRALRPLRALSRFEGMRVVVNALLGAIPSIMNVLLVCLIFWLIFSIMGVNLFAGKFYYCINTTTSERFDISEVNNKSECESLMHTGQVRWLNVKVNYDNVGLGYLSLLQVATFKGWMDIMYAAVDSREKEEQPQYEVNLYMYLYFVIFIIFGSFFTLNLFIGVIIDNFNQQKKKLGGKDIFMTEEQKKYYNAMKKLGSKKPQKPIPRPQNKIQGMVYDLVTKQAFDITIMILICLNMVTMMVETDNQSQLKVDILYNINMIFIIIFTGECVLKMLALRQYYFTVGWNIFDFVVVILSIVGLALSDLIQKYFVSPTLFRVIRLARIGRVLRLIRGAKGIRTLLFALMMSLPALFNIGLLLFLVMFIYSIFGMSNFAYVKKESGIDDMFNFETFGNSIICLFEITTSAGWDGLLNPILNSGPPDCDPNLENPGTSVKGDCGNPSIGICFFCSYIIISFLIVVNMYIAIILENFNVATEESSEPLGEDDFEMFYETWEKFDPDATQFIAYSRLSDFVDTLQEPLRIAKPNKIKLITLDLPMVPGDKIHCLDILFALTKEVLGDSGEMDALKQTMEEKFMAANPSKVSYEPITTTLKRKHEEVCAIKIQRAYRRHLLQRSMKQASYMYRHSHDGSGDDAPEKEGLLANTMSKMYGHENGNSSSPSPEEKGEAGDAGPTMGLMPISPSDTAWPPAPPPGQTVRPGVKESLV
- assay: Inhibition of Nav1.4 ion channel assessed as reduction in cumulative sodium current
One number for each entry, in µM.

Solved cases below.
[[record]]
molecule = "Cc1cccc(C)c1OC[C@@H](N)C(C)C (racemic)"
result_value = 5.75

[[record]]
molecule = "Cc1cc(Cl)ccc1OC[C@H](N)c1ccccc1"
result_value = 15.1


Provide each entry's EC50 from the list below.
1. N[C@H](COc1ccccc1)c1ccccc1
2. Cc1cccc(C)c1OC[C@H](N)c1ccccc1
3. Cc1cccc(C)c1N(C)C(=O)[C@@H]1CCCN1C
4. Cc1cccc(C)c1SC[C@H](N)c1ccccc1
5. Cc1cc(Cl)cc(C)c1OC[C@@H](N)c1ccccc1
6. Cc1cc(Cl)cc(C)c1OC[C@@H](C)CN
7. N[C@@H](COc1ccccc1)c1ccccc1

1: 15.8; 2: 3.02; 3: 200; 4: 7.08; 5: 7.94; 6: 2.88; 7: 3.98

Provide each entry's EC50 from the list below.
1. Cc1cccc(C)c1N1CN2CCC[C@@H]2C1=O
2. Cc1cccc(C)c1OC[C@@H](C)CN
3. Cc1cccc(C)c1SC[C@@H](C)CN
4. Cc1cccc(C)c1OC[C@H](N)C(C)C

1: 501; 2: 17.4; 3: 1.91; 4: 5.75

Provide each entry's EC50 from the list below.
1. Cc1cccc(C)c1OC[C@H](C)N [(S)-MEXILETINE]
2. Cc1cc(Cl)cc(C)c1OC[C@H](N)c1ccccc1
3. Cc1cccc(C)c1NC(=O)[C@H]1CCCN1C
4. Cc1cccc(C)c1OC[C@@H](N)c1ccccc1

1: 26.9; 2: 19.5; 3: 67.6; 4: 3.02

Provide each entry's EC50 from the list below.
1. Cc1cccc(C)c1N(C)C(=O)[C@H]1CCCN1C
2. Cc1cccc(C)c1N(C)C(=O)[C@H]1CCCN1
3. Cc1cccc(C)c1NC(=O)[C@@H]1CCCN1
4. Cc1cccc(C)c1SC[C@@H](N)c1ccccc1
5. Cc1cccc(C)c1NC(=O)[C@@H](C)N [(R)-TOCAINIDE]
6. Cc1cc(Cl)ccc1OC[C@@H](N)Cc1ccccc1
7. Cc1cc(Cl)cc(C)c1OC[C@H](C)CN
8. Cc1cccc(C)c1NC(=O)[C@@H]1CCCN1C

1: 501; 2: 219; 3: 40.7; 4: 4.68; 5: 275; 6: 22.9; 7: 3.72; 8: 28.2

Provide each entry's EC50 from the list below.
1. Cc1cccc(C)c1OC[C@H](C)CN
2. Cc1cccc(C)c1NC(=O)[C@@H]1CCN(Cc2ccccc2)C1

[23.4, 1.7]

Recorded values, source ChEMBL document CHEMBL1137734.
